Test: Confirmation screen for delayed death inhibitors of the malarial parasite plastid, 48 hour incubation; further: nearly all actives have a fitted effect of over 65% in size; further: potency means the concentration at half of the fitted maximal effect
Conditions: P. falciparum-infected erythrocytes, luciferase growth; series mostly up to 28.7 µM
The whole screen tested about 2,300 compounds, of which about 1,200 (52%) were called active. Another 34% or so got no clear call; they are omitted. So high a share suggests a set chosen from earlier hits. The list shows a part of the results.
Quantity kind: Potency

- Compound: "C[C@H]1[C@@H](OC(=O)CCC(=O)O)OC2OC3(C)CC[C@H]4[C@H](C)CC[C@@H]1[C@@]24OO3 (stereo partly specified)"
  Quantity kind: "Potency"
  Result: "0.0398 µM (active)"
- Compound: "CCOC(=O)N1C/C(=C\\c2ccccc2)C(=O)/C(=C/c2ccccc2)C1"
  Quantity kind: "Potency"
  Result: "6.31 µM (active)"
- Compound: "Cc1ccc(NS(=O)(=O)c2ccc(-c3cnc(C4CC4)o3)cc2)c(C)c1"
  Quantity kind: "Potency"
  Result: "5.01 µM (active)"
- Compound: "COc1ccc2c(c1OC)C(=O)OC2Nc1nc(-c2ccccc2)cs1 (stereo unspecified)"
  Quantity kind: "Potency"
  Result: "10 µM (active)"
- Compound: "O=C(/C=C/Sc1ncn[nH]1)c1ccc(Cl)cc1"
  Quantity kind: "Potency"
  Result: "12.6 µM (active)"
- Compound: "CN(C)S(=O)(=O)c1cccc(NC(=O)CSc2cccc3cccnc23)c1"
  Quantity kind: "Potency"
  Result: "11.2 µM (active)"

Given the compound C#Cc1ccc(CN2CCN(CCCc3ccccc3)C(CCO)C2)cc1 (stereo unspecified) , what is its reported Potency?
11.2 µM (active)

And what about the compound "Fc1ccccc1N1CCN(c2ncnc3nc[nH]c23)CC1" ?
inactive

Entry "CCCc1c(CC)c(=N)c2ccccc2n1C" please
0.282 µM (active)

Input "Cc1cnc(CNC(=O)c2ccc3oc(Cc4ccccc4)nc3c2)[nH]1"
15.8 µM (active)

And the next one, "O=C(NCc1ccccn1)Nc1cc(Cl)ccc1Cl" ?
5.01 µM (active)

Item: "O=S(=O)(c1ccc(Cl)c(Cl)c1)c1snnc1-c1ccccc1"
12.6 µM (active)

Now consider "Cc1nn(-c2ccccc2)c(N2CCCC2)c1/C=N/NC(=S)Nc1ccccc1F" and answer again.
12.6 µM (active)

Cool, now CC1S/C(=N/N=C/c2ccco2)N(Cc2ccccc2)C1=O (stereo unspecified)
inactive

And what about the compound "O=C(O)c1cc(-c2ccc3ccccc3c2)nc2ccc(F)cc12" ?
inactive

====

Assay: Confirmation screen for delayed death inhibitors of the malarial parasite plastid, 48 hour incubation; further: nearly all actives have a fitted effect of over 65% in size
Conditions: P. falciparum-infected erythrocytes, luciferase growth; series mostly up to 28.7 µM
Out of some 2,300 compounds screened, about 1,200 (52%) were called active. Inconclusive results (about 34%) are left out. The call rests on the fitted dose curve; in most records, active means well fitted inhibition curve with a large enough effect; inconclusive means small, poorly fitted or top-dose-only effect, or effect the other way; inactive means no such curve, though single readings can be large or run the other way. So high a share suggests a set chosen from earlier hits. The list shows a part of the results.
Pick one: active, inactive

These recorded examples may help you get a feel for the data.
- Molecule: "C[C@@H]1[C@H](O)C[C@@]23COC(=O)C2=CCCC3[C@@]1(C)CCC1COC(=O)C1 (stereo not given in full)"
  Label class: "inactive"
- Molecule: "OC(c1ccccc1)(c1ccccc1)C1CCN(C(=S)NCCc2ccccc2)CC1"
  Label class: "active"
- Molecule: "COCCNC(=O)c1cccc(OC2CCN(Cc3ccc(C(C)C)cc3)CC2)c1"
  Label class: "active"
- Molecule: "O=C(COC(=O)c1ccc(O)cc1O)Nc1ccc2ccccc2c1"
  Label class: "inactive"
- Molecule: "O=C(NC1CC1)C1=C[C@@H](C2CCCCC2)C[C@@H](OCc2ccc(CO)cc2)O1"
  Label class: "active"

So what was the verdict on CCOC(=O)C1CCCN(C(=O)c2cc3cc4ccc(OC)cc4nc3o2)C1 (stereo not given) in this test?
active

Subsequent entry: "O=C(NCc1ccccc1)C1=C[C@@H](c2coc3ccccc3c2=O)C[C@@H](OCc2ccc(CO)cc2)O1"
active

====

Experiment: Confirmation screen for delayed death inhibitors of the malarial parasite plastid, 48 hour incubation; further: nearly all actives have a fitted effect of over 65% in size; further: potency means the concentration at half of the fitted maximal effect
Conditions: P. falciparum-infected erythrocytes, luciferase growth; series mostly up to 28.7 µM
The whole screen tested about 2,300 compounds, of which about 1,200 (52%) were called active. Roughly 34% stayed inconclusive and do not appear here. So high a share suggests a set chosen from earlier hits. Some of the results follow.
Quantity kind: Potency

- Record smiles: "Cc1c(-c2ccccc2)nc2ccccc2c1C(=O)Nc1ccncc1"
  Quantity kind: "Potency"
  Result: "0.501 µM (active)"
- Record smiles: "O=C(Nc1ccc(Cl)cc1)c1ccc(CN2CCc3ccccc3C2)cc1"
  Quantity kind: "Potency"
  Result: "14.1 µM (active)"
- Record smiles: "O=C(Nc1ccc(F)cc1)c1ccc(CN2CCc3ccccc3C2)cc1"
  Quantity kind: "Potency"
  Result: "12.6 µM (active)"

The record that follows has no Potency shown yet.
Suppose we examine the compound "COc1ccc(OC)c(-c2nc(C(=O)NC3CCN(Cc4ccccc4)CC3)cc3c2[nH]c2ccccc23)c1" ; what Potency value has been reported?
4.47 µM (active)

====

Experiment: Confirmation screen for delayed death inhibitors of the malarial parasite plastid, 48 hour incubation; further: nearly all actives have a fitted effect of over 65% in size
Conditions: P. falciparum-infected erythrocytes, luciferase growth; series mostly up to 28.7 µM
Source text: The goal of this screen is to discover new antimalarial compounds that act by inhibiting the development of the apicoplast in the malarial parasite Plasmodium falciparum. The biochemical processes that make this organelle essential for erythrocytic stage parasites are not well understood. […] Growth inhibition is detected by a decrease in luciferase activity. […]
In all, about 2,300 compounds went through this assay and about 1,200 (52%) were called active. Not shown: some 34% with an inconclusive outcome. Calls come from the whole dose curve; as a rule, active = well fitted inhibition curve with a large enough effect; inconclusive = small, poorly fitted or top-dose-only effect, or effect the other way; inactive = no such curve, though single readings can be large or run the other way. So high a share suggests a set chosen from earlier hits. The list shows a part of the results.
Result category, one only: active, inactive

Hi, sorry to bother you, what did the test record for CCC(C(=O)O)C1OC(C(C)C(O)C(C)C(=O)C(CC)C2OC3(C=CC(O)C4(CCC(C)(C5CCC(O)(CC)C(C)O5)O4)O3)C(C)CC2C)C(C)CC1C (stereo not drawn) ?
active

Next record, please: O=C(c1[nH]ncc1-c1cccc(Br)c1)C1CO1 (stereo not drawn)
active

Proceed to COC(=O)C1=C(C)Nc2ncnn2C1c1ccccn1 (stereo not drawn)
inactive

Input "O=C(C=C=Nc1ccccc1)C(=O)N=C=Cc1ccccc1"
active

Now give it for "Cc1ccc(-n2ncc3c(SCc4ccccn4)ncnc32)c(C)c1" too.
active

====

Assay: Confirmation screen for delayed death inhibitors of the malarial parasite plastid, 48 hour incubation; further: nearly all actives have a fitted effect of over 65% in size
Settings: P. falciparum-infected erythrocytes, luciferase growth; series mostly up to 28.7 µM
The whole screen tested about 2,300 compounds, of which about 1,200 (52%) were called active. About 34% were inconclusive and are not listed. Calls follow the shape of the dose curve; as a rule, active = well fitted inhibition curve with a large enough effect; inconclusive = small, poorly fitted or top-dose-only effect, or effect the other way; inactive = no such curve, though single readings can be large or run the other way. The set was probably picked from earlier hits. The list shows a part of the results.
Select the matching outcome among 1 (active), -1 (inactive)

Use these answered entries as a reference point.
- Compound: "CN(C)c1ccc(CN(C(=O)c2ccccc2Br)C2CCS(=O)(=O)C2)cc1 (stereo unspecified)"
  Label class: 1
- Compound: "Cc1ccsc1/C=N/NC(=O)c1nnn(-c2nonc2N)c1-c1ccc2c(c1)OCO2"
  Label class: 1

Outcome logged for "CCCc1c(NC(=O)Nc2ccc(F)cc2)cnn1-c1ccc(Cl)cc1" in this assay:
1

Another compound: "Cc1ccn2c(NC3CCCC3)c(-c3ccccn3)nc2c1"
1

Same question for Cc1c(Cl)cccc1NC(CC(=O)c1ccccc1)C(=O)O (stereo unspecified) please.
-1

Follow-up entry: "Nc1nonc1-n1nnc(C(=O)N/N=C/c2ccc(Cl)cc2)c1-c1ccc2c(c1)OCO2"
1

Likewise for "Nc1nonc1-n1nnc(C(=O)N/N=C/c2cccc(Cl)c2)c1-c1ccc2c(c1)OCO2" ?
1

====

Experiment: Confirmation screen for delayed death inhibitors of the malarial parasite plastid, 48 hour incubation; further: nearly all actives have a fitted effect of over 65% in size
Details: P. falciparum-infected erythrocytes, luciferase growth; series mostly up to 28.7 µM
Description: The goal of this screen is to discover new antimalarial compounds that act by inhibiting the development of the apicoplast in the malarial parasite Plasmodium falciparum. The biochemical processes that make this organelle essential for erythrocytic stage parasites are not well understood. […] Growth inhibition is detected by a decrease in luciferase activity. […]
Screen size: about 2,300 compounds; about 1,200 (52%) were called active. Another 34% or so got no clear call; they are omitted. Calls come from the whole dose curve; as a rule, active = well fitted inhibition curve with a large enough effect; inconclusive = small, poorly fitted or top-dose-only effect, or effect the other way; inactive = no such curve, though single readings can be large or run the other way. So high a share suggests a set chosen from earlier hits. The list shows a part of the results.
Tick one outcome: TRUE for active, FALSE for inactive

// below: answered compounds
- Compound: "Cc1cc(=O)n2nc(N3CCCC(C(=O)NCc4ccc(Cl)cc4)C3)sc2n1 (stereo unspecified)"
  Label class: "TRUE"
- Compound: "CCOc1ccc(C2c3[nH]c4ccccc4c3CCN2Cc2cccn2-c2ncccn2)cc1 (stereo unspecified)"
  Label class: "TRUE"
- Compound: "O=C(/C=C/c1ccccc1)/C=C/c1ccccc1"
  Label class: "TRUE"
- Compound: "COc1ccc(C)cc1-n1c(SCC(=O)Nc2cc(C)on2)nc2sc(C)c(C)c2c1=O"
  Label class: "TRUE"
- Compound: "O=C(CCl)Nc1c2c(nn1-c1ccccc1)CSC2"
  Label class: "TRUE"
- Compound: "O=C(NCCCn1ccnc1)C(=O)NCC1OCCN1S(=O)(=O)c1ccc(F)cc1 (stereo unspecified)"
  Label class: "FALSE"
- Compound: "CSc1ccccc1OCc1cc(C(=O)NCCn2ccnc2C)no1"
  Label class: "FALSE"
- Compound: "COc1ccc(-c2cc(-c3ccccc3)nc(SCC(=O)Nc3nccs3)c2C#N)cc1"
  Label class: "TRUE"

Just curious, what result did CCC1OC(=O)C[C@@H](O)[C@H](C)[C@@H](OC2OC(C)CC(N(C)C)C2O)[C@@H](CC=O)C[C@@H](C)C(=O)/C=C/[C@]2(C)OC2C1C (stereo partly specified) get here?
TRUE

Then what about the compound "O=C(CNC(=O)c1cccc(S(=O)(=O)N2CCc3ccccc32)c1)Nc1ccc(F)c(F)c1F" ?
TRUE
